assay: melting temperature; fluorescence melt of hairpins on a sequencing array, two-state fit, raised by 9.35 °C to match UV melts; conditions: sodium 0.088 M
ATTRIBUTE MEASURED: Tm (°C)
Entry rule: numbers only, all in °C.

Here are 3 sequences together with their reported answers.
GCGGTGGCCCGC ((((....)))) ... 61
GATCACGCGGGTGATC ((((((....)))))) ... 57.1
GATCCGAGCACGGATC ((((((....)))))) ... 58.5

Field Tm (entry GCATTAGAAATAATGC ((((((....)))))) ) reads 48.2

Field Tm (entry GATCAAACTATTGATC ((((((....)))))) ) reads 40.3

Field Tm (entry GACTTTCCGAAAGGAGTC (((..(((....)))))) ) reads 29.6

Field Tm (entry GCCGGGCGAAAGCTAGGC (((..((....))..))) ) reads 66.6

Field Tm (entry GACAACCGAAAGGTCGTC (((.(((....))).))) ) reads 49.5

Field Tm (entry GTTCCGCGAAAGCGCAAC (((.(((....))).))) ) reads 38.4

Field Tm (entry GTAGTTGAAAAACTAC ((((((....)))))) ) reads 48.9

Field Tm (entry GTCTGCGCGAAAGCGGAC (((..(((....)))))) ) reads 45.2

Field Tm (entry GAGGGCGAAAGCCTCTC ((((((....))).))) ) reads 53.2
